Below: a set of entries, each annotated with reported Ki.
# study_target: Adenosine receptor A2a (Rattus norvegicus, UniProt P30543)
# Sequence (P30543 whole entry): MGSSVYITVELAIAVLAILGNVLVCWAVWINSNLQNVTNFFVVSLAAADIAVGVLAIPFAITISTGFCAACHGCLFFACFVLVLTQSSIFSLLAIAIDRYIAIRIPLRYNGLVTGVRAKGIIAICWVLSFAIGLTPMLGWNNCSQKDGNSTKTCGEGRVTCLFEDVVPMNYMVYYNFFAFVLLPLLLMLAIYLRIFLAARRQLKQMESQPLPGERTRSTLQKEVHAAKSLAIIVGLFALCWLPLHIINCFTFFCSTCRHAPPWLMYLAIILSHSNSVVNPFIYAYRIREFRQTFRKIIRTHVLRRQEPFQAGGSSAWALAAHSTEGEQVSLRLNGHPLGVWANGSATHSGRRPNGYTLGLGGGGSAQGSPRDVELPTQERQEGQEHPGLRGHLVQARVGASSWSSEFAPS
# test: Antagonist activity against rat adenosine A2A receptor
metric: Ki (nM)

>  <query_smiles>
COc1ccc2c(C)nc(NC3=NCC(=O)N3)nc2c1

>  <study_target>
Adenosine receptor A2a (Rattus norvegicus, UniProt P30543)

>  <u>
nM

>  <test_value>
2400

$$$$
>  <query_smiles>
CCOc1cccc2c(C)nc(N=C(N)N)nc12

>  <study_target>
Adenosine receptor A2a (Rattus norvegicus, UniProt P30543)

>  <u>
nM

>  <test_value>
624

$$$$

* * *

# study_target: Adenosine receptor A1 (Rattus norvegicus)
# Sequence (P25099 whole entry): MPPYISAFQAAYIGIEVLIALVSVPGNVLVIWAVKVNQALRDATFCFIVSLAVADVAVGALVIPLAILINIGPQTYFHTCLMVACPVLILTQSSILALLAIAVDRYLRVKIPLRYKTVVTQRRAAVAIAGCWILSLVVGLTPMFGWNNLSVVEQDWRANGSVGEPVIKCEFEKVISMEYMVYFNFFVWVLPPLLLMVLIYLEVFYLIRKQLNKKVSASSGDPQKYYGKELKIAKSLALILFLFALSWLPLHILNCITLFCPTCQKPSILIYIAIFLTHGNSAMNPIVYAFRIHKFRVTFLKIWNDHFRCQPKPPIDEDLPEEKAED
# test: Antagonist activity against rat adenosine A1 receptor
pKi: −log10 of the molar value.
metric: pKi

>  <query_smiles>
CCOc1cccc2c(C)nc(N=C(N)N)nc12

>  <study_target>
Adenosine receptor A1 (Rattus norvegicus)

>  <metric>
pKi

>  <test_value>
5.88

$$$$
>  <query_smiles>
COc1ccc2c(C)nc(NC3=NCC(=O)N3)nc2c1

>  <study_target>
Adenosine receptor A1 (Rattus norvegicus)

>  <metric>
pKi

>  <test_value>
5.89

$$$$
